Hey, just so you know, these numbers are from patent US9079915B2.

PROTOCOL: Microsomal stability, human liver microsomes
Type: in vitro ADME
CONDITION_CONTEXT: 0.5 mg/mL protein, Phase I plus Phase II cofactors, read-out: Microsomal Stability Human Phase I & II t1/2
Procedure: The assay protocol was described in Summerfield S G, Read K, Begley D J, Obradovic T, Hidalgo I J, Coggon S, Lewis A V, Porter R A, Jeffrey P 2007. […] The samples were incubated with liver microsomes from rat, mouse, and human at 1 μM at microsomal protein concentration of 0.5 mg/mL at 37° C. in the presence of NADPH cofactor. […] The solution was centrifuged and the supernatants were analyzed using LC-MS-MS. […]
Property: half-life at 1 μM; scope: individual compounds
MEASURE_NAME: half-life at 1 μM

compound="O=c1[nH]c2sc(CN3CCCCC3)cc2c2c(O)cccc12 [Example 11]" measure_name="half-life at 1 μM" experimental_result="17 min"
compound="O=c1[nH]c2sc(CN3CCSC3)cc2c2c(O)cccc12 [Example 12]" measure_name="half-life at 1 μM" experimental_result="4 min"
compound="CC(C)NCc1cc2c([nH]c(=O)c3cccc(O)c32)s1 [Example 13]" measure_name="half-life at 1 μM" experimental_result="> 30 min"
compound="O=c1[nH]c2sc(CN3CCCC3)cc2c2c(O)cccc12 [Example 14]" measure_name="half-life at 1 μM" experimental_result="> 30 min"
compound="Br.CN(C)Cc1cc2c([nH]c(=O)c3cccc(O)c32)s1 [Example 2]" measure_name="half-life at 1 μM" experimental_result="17 min"
compound="O=c1[nH]c2sc(CN3CCOCC3)cc2c2c(O)cccc12 [Example 10]" measure_name="half-life at 1 μM" experimental_result="30 min"
compound="O=c1[nH]c2sc(CN3CCC(Br)CC3)cc2c2c(O)cccc12 [Example 15]" measure_name="half-life at 1 μM" experimental_result="5 min"
